Biological target: recombinant human baculovirus-expressed cMET (Homo sapiens (Human), UniProt P08581)
Sequence (P08581 25-1390): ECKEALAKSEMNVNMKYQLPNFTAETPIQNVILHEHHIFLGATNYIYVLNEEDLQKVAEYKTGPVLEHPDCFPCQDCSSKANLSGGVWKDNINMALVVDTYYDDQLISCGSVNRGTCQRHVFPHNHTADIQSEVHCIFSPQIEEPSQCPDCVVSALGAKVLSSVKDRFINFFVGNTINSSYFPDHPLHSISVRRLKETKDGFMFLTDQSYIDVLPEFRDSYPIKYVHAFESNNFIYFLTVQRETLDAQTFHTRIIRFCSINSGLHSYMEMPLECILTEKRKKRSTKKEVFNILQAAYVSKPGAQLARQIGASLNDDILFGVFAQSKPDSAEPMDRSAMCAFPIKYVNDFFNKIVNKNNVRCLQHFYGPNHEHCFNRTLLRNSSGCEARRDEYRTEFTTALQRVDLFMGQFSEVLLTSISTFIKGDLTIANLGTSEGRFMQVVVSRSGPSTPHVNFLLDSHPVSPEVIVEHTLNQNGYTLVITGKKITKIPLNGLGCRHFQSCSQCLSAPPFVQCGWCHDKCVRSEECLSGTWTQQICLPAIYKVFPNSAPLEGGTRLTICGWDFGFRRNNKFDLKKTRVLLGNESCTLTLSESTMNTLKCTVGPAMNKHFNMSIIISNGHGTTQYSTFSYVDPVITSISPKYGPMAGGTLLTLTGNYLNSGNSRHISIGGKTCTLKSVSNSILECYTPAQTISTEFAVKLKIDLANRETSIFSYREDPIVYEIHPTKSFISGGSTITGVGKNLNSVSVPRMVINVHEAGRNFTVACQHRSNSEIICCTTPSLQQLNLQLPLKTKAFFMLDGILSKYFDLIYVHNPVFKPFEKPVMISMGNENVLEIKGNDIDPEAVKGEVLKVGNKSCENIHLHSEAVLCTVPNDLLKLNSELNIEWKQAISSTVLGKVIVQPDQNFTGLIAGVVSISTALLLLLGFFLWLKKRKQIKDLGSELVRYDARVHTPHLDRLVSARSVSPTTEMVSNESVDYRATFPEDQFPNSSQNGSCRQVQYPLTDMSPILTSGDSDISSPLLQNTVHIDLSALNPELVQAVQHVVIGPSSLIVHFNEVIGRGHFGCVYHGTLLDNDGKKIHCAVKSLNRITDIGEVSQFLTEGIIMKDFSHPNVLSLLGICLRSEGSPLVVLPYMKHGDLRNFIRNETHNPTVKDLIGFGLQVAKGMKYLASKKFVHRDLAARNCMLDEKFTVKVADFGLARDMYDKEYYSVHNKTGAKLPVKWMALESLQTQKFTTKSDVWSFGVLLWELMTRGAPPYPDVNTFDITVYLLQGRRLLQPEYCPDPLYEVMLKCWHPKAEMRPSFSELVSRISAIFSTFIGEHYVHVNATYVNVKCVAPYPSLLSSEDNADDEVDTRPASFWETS
Assay: c-MET kinase assay (HTRF KinEASE)
Format: biochemical
Details: average of two or more determinations; read-out: c-MET IC50
measurement.type: IC50

Guide cases for IC50, answers given:
Give its IC50 value. Item: CCn1cc(C(=O)Nc2ccc(Oc3cc(-c4cn(C)cn4)cn4nccc34)nc2)c(=O)n(-c2ccc(F)cc2)c1=O < 10 nM

Please answer likewise for CCn1cc(C(=O)Nc2ccc(Oc3cc(N4CCS(=O)(=O)CC4)cn4nccc34)c(F)c2)c(=O)n(-c2ccc(F)cc2)c1=O < 10 nM

Now the same for CC(C)n1cc(C(=O)Nc2ccc(Oc3cc(NC(=O)N4CCN(C)CC4)cn4nccc34)c(F)c2)c(=O)n(-c2ccc(F)cc2)c1=O 10 to 100 nM

Continue with the molecule presented below.
Would you kindly share the measured IC50 for Cn1cc(-c2cc(Oc3ccc(NC(=O)c4cccn(-c5ccc(F)cc5)c4=O)cc3F)c3ccnn3c2)cn1 ? < 10 nM

====

Biological target: recombinant human baculovirus-expressed AXL (Homo sapiens (Human))
Sequence (P30530 26-894): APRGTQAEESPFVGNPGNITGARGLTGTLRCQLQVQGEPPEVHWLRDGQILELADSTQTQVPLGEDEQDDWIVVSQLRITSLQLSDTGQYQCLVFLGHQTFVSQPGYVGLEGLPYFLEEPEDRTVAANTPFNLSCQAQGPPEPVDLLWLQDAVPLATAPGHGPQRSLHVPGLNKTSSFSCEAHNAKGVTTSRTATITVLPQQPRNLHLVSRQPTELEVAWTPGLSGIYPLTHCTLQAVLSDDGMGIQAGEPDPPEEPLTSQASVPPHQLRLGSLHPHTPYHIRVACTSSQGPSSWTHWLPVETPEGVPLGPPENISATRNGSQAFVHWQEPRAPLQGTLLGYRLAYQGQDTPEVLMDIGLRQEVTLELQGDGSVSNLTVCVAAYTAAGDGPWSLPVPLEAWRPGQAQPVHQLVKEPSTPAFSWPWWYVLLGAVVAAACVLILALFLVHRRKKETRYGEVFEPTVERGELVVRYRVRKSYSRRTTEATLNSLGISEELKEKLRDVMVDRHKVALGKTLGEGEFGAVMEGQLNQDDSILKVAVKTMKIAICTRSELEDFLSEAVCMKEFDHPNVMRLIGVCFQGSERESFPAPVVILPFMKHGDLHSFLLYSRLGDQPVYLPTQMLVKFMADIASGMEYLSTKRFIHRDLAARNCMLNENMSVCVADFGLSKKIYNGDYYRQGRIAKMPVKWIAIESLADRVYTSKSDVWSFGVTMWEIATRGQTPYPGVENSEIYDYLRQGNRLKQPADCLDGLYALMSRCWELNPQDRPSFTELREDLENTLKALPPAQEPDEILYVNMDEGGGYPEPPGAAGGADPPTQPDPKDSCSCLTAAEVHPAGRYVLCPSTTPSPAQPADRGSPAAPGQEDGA
Assay: AXL kinase assay (HTRF KinEASE)
Settings: average of two or more determinations
pIC50: −log10 of the molar value.
measurement.type: pIC50

Below are worked cases with known answers.
Look at this molecule and give its reported pIC50. Cn1cnc(-c2cc(Oc3ccc(NC(=O)c4cn(C)c(=O)n(-c5ccc(F)cc5)c4=O)cc3F)c3ccnn3c2)c1 > 8.00

Proceed to CCn1cc(C(=O)Nc2ccc(Oc3cc(-c4cscn4)cn4nccc34)c(F)c2)c(=O)n(-c2ccc(F)cc2)c1=O > 8.00

Could you do the same for Cn1cc(-c2cc(Oc3ccc(NC(=O)c4cccn(-c5ccc(F)cc5)c4=O)cc3F)c3ccnn3c2)cn1 , please? > 8.00

One more molecule: CCn1cc(C(=O)Nc2ccc(Oc3cc(-c4cn(C)cn4)cn4nccc34)cc2)c(=O)n(-c2ccc(F)cc2)c1=O > 8.00

Thanks! And CCn1cc(C(=O)Nc2ccc(Oc3cc(-c4cnn(C)c4)cn4nccc34)c(F)c2)c(=O)n(-c2ccc(F)cc2)c1=O ? > 8.00

Continuing:
What value of measured pIC50 is listed for Cn1cnc(-c2cc(Oc3ccc(NC(=O)c4cccn(-c5ccc(F)cc5)c4=O)cc3F)c3ccnn3c2)c1 ? > 8.00

Now this one: Cn1cnc(-c2cc(Oc3ccc(NC(=O)c4cn(CCOCc5ccccc5)c(=O)n(-c5ccc(F)cc5)c4=O)cc3F)c3ccnn3c2)c1 > 8.00

Param item: CC(C)n1nc(C(=O)Nc2ccc(Oc3cc(-c4cn(C)cn4)cn4nccc34)c(F)c2)c(=O)n(-c2ccc(F)cc2)c1=O > 8.00

Okay, and CC(C)n1cc(C(=O)Nc2ccc(Oc3cc(-c4cnsc4)cn4nccc34)c(F)c2)c(=O)n(-c2ccc(F)cc2)c1=O ? > 8.00

What would you report for CCn1cc(C(=O)Nc2ccc(Oc3cc(-c4cn(C)cn4)cn4nccc34)c(F)c2)c(=O)n(-c2ccc(F)cc2)c1=O ? > 8.00

Entry to check: CC(C)n1cc(C(=O)Nc2ccc(Oc3cc(-c4cn(C)cn4)cn4nccc34)cn2)c(=O)n(-c2ccc(F)cc2)c1=O > 8.00

====

Target: recombinant human baculovirus-expressed cMET (Homo sapiens (Human))
Test: c-MET kinase assay (HTRF KinEASE)
Format: biochemical
Conditions: average of two or more determinations; read-out: c-MET IC50
measurement.type: IC50

So what's the measured IC50 for this one? Cc1cccc(-c2cc(Oc3ccc(NC(=O)c4cn(C(C)C)c(=O)n(-c5ccc(F)cc5)c4=O)cc3F)c3ccnn3c2)n1 10 to 100 nM

Now consider Cn1cc(Nc2cc(Oc3ccc(NC(=O)c4cccn(-c5ccc(F)cc5)c4=O)cc3F)c3ccnn3c2)cn1 and answer again. < 10 nM

One more compound: O=C(Nc1ccc(Oc2cccn3nccc23)c(F)c1)c1c[nH]c(=O)n(-c2ccc(F)cc2)c1=O 10 to 100 nM

Now this one: CC(C)n1cc(C(=O)Nc2ccc(Oc3cc(N4CCCC4=O)cn4nccc34)c(F)c2)c(=O)n(-c2ccc(F)cc2)c1=O < 10 nM

// same read-out, input: Cn1cc(-c2cc(Oc3ccc(NC(=O)C4(C(=O)Nc5ccc(F)cc5)CC4)cc3F)c3ccnn3c2)cn1 < 10 nM

Further, for Cc1ccc(C(=O)Nc2ccc(Oc3cc(C4CCS(=O)(=O)CC4)cn4nccc34)c(F)c2)c(=O)n1-c1ccc(F)cc1 ? < 10 nM

Try this compound too: CCn1cc(C(=O)Nc2ccc(Oc3cc(NC(C)=O)cn4nccc34)c(F)c2)c(=O)n(-c2ccc(F)cc2)c1=O < 10 nM

Then this compound: Cc1ccc(C(=O)Nc2ccc(Oc3cc(N4CCOCC4)cn4nccc34)c(F)c2)c(=O)n1-c1ccc(F)cc1 < 10 nM

What about Cc1cc(NC(=O)c2cn(C(C)C)c(=O)n(-c3ccc(F)cc3)c2=O)ccc1Oc1cc(-c2cn(C)cn2)cn2nccc12 ? 10 to 100 nM

# repeat for CC(C)n1cc(C(=O)Nc2ccc(Oc3cc(N4CCC(F)(F)C4)cn4nccc34)c(F)c2)c(=O)n(-c2ccc(F)cc2)c1=O 10 to 100 nM

More entries:
Fill blank: measured IC50 of the compound CN1CCN(c2cc(Oc3ccc(NC(=O)c4cccn(-c5ccc(F)cc5)c4=O)cc3F)c3ccnn3c2)CC1 is ____. < 10 nM

# repeat for CCn1cc(C(=O)Nc2ccc(Oc3cc(NC(=O)OC)cn4nccc34)c(F)c2)c(=O)n(-c2ccc(F)cc2)c1=O 10 to 100 nM

// repeat for Cn1cnc(-c2cc(Oc3ccc(NC(=O)C4(C(=O)Nc5ccc(F)cc5)CC4)cc3F)c3ccnn3c2)c1 and report < 10 nM

Same lookup for Cn1cnc(-c2cc(Oc3ccc(NC(=O)c4cccn(-c5ccc(F)cc5)c4=O)cc3F)c3ccnn3c2)c1 , please. < 10 nM

Values from patent US9914731B2
